Molecular target: H1 receptor (Cavia porcellus)
Construct: guinea pig cerebromembranous protein; from tissue; host or cells: guinea pig cerebral (brain) membranes
Assay: H1 receptor binding inhibition test ([^3 H]mepyramin, guinea pig cerebromembranous protein)
Details: read-out: H1 receptor, dissociation constant KD
So basically, if Kd comes in under 70 µM it's rule met, and if it's 70 µM or more it's rule not met.

Previously resolved entries follow.
smiles_structure=O=C1CCc2ccc(OCc3cccc(OCc4nc5ccccc5s4)c3)cc2N1 assigned_category="rule not met"
smiles_structure=Cn1c(COc2cccc(COc3ccc4c(c3)SCC(=O)N4)c2)nc2ccccc21 assigned_category="rule met"
smiles_structure=O=C1CCc2cccc(OCc3cccc(OCc4ccc5ccccc5n4)c3)c2N1 assigned_category="rule not met"

Does O=C1NCCCc2cc(OCc3ccc(OCc4ccc5ccccc5n4)cc3)ccc21 have Kd strictly under 70 µM?
rule met

Does O=C1CCc2ccc(OCc3cccc(OCc4ncc5ccccc5n4)c3)cc2N1 have Kd strictly under 70 µM?
rule not met

Does O=C1CCc2cccc(OCc3ccc(OCc4ccc5ccccc5n4)cc3)c2N1 have Kd strictly under 70 µM?
rule met

---

Measured inhibition at 10 µM of individual entries
Target: LTD4 receptor (Cavia porcellus)
Construct: guinea pig pulmomembranous protein; from tissue; host or cells: guinea pig lung membranes
Sequence (Q2NNR5 1-340): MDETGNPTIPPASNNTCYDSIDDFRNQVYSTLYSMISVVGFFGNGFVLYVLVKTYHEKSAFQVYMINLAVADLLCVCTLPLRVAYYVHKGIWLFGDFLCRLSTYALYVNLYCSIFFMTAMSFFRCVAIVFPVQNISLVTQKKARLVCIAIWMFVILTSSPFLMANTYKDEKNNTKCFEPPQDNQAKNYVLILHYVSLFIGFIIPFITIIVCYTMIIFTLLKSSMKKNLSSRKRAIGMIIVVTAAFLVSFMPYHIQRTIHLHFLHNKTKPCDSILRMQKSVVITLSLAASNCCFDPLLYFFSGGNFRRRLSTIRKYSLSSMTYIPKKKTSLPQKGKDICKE
Assay: LTD4 receptor binding inhibition test ([^3 H]leukotriene D4, guinea pig pulmomembranous protein)
Conditions: b: 10 μM; read-out: LTD4 receptor (%), inhibition rate
Experimental: 2) LTD4 Receptor Binding Inhibition Test An ice-cooled tris hydrochloride/sodium chloride buffer (10 mM/100 mM, pH 7.5) was added to terminate the reaction, followed by immediate filtration through a Wattman CF/C filter. The filter was washed twice with 20 ml aliguots of the ice-cooled buffer. The radioactivity of the residue was measured by a liquid scintillation counter. […] In a binding assay, 2 μM leukotriene D4 was used for the measurement of a nonspecific binding.
Enter your answer as a number in %; do not include the unit.

Consider the worked cases shown below.
smiles_structure=O=C1CCc2ccc(OCc3ccc(OCc4nc5ccccc5s4)cc3)cc2N1 measure_name="inhibition at 10 µM" value_observed=17
smiles_structure=O=C1CSc2cc(OC(=O)c3ccc(OCc4ccc5ccccc5n4)cc3)ccc2N1 measure_name="inhibition at 10 µM" value_observed=28
smiles_structure=CC1(C)C(=O)Nc2cc(OCc3cccc(OCc4ccc5ccccc5n4)c3)ccc21 measure_name="inhibition at 10 µM" value_observed=37
smiles_structure=O=C1CSc2cc(N=Cc3ccc(OCc4ccc5ccccc5n4)cc3)ccc2N1 measure_name="inhibition at 10 µM" value_observed=0

Tell us which inhibition at 10 µM value is on record for Cc1ccc(OCc2ccc(OCc3ccc4ccccc4n3)cc2)c2c1NC(=O)CC2
33

Tell us which inhibition at 10 µM value is on record for CN(Cc1cccc(OCc2ccc3ccccc3n2)c1)c1ccc2c(c1)SCC(=O)N2
9

Tell us which inhibition at 10 µM value is on record for O=C1CCc2ccc(OCc3cccc(OCc4nc5ccccc5s4)c3)cc2N1
34

Tell us which inhibition at 10 µM value is on record for Cn1c(COc2cccc(COc3ccc4c(c3)S(=O)(=O)CC(=O)N4)c2)nc2ccccc21
42

Tell us which inhibition at 10 µM value is on record for O=C1CS(=O)(=O)c2cc(NC(=O)c3cccc(OCc4ccc5ccccc5n4)c3)ccc2N1
27

---

Target: H1 receptor (Cavia porcellus, UniProt P31389)
Construct: guinea pig cerebromembranous protein; from tissue; host or cells: guinea pig cerebral (brain) membranes
Sequence (P31389 whole entry): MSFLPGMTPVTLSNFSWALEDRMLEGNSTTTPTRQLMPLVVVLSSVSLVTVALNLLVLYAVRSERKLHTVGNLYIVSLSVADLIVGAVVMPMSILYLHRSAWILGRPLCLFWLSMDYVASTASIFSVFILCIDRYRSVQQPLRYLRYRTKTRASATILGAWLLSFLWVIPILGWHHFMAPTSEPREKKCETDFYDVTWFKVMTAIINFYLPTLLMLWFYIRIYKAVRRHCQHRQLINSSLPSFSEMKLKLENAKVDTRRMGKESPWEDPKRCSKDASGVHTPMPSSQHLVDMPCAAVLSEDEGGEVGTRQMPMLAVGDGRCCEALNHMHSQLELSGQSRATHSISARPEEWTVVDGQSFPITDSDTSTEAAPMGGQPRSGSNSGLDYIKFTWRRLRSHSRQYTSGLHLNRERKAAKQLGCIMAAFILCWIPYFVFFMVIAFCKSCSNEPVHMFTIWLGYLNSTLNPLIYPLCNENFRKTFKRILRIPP
Test: H1 receptor binding inhibition test ([^3 H]mepyramin, guinea pig cerebromembranous protein)
Conditions: a: 100 μM; read-out: H1 receptor (%), inhibition rate
Procedure: 1) H1 Receptor Binding Inhibition Test An ice-cooled phosphate buffer was added to terminate the reaction, followed by immediate filtration through a Wattman CF/C filter. The filter was washed twice with 20 ml aliquots of the ice-cooled buffer. The radioactivity of the residue was measured by a liquid scintillation counter. […] Using the Cheng-Prusoff formula, a dissociation constant was calculated from the IC50. […]
measure.name: inhibition at 100 µM (%)
Enter your answer as a number in %; do not include the unit.

compound="Cc1ccc(OC(=O)c2ccc(OCc3ccc4ccccc4n3)cc2)c2c1NC(=O)CC2 [Example 63]" value_observed=40
compound="Cc1ccc(OCc2cccc(OCc3nc4ccccc4n3C)c2)c2c1NC(=O)C2(C)C [Example 37]" value_observed=28
compound="Cc1ccc(OCc2cccc(OCc3ccc4ccccc4n3)c2)c2c1NC(=O)CC2 [Example 5]" value_observed=57
compound="Cc1ccc(OCc2cccc(OCc3ccc4ccccc4n3)c2)c2cc(C#N)c(=O)[nH]c12 [Example 3]" value_observed=44
compound="O=C1CCc2ccc(OC(=O)c3ccc(OCc4ccc5ccccc5n4)cc3)cc2N1 [Example 65]" value_observed=43
compound="O=C1CSc2cc(OCc3cccc(OCc4nc5ccccc5s4)c3)ccc2N1 [Example 40]" value_observed=43
compound="CC1(C)C(=O)Nc2c(OCc3ccc(OCc4ccc5ccccc5n4)cc3)cccc21 [Example 30]" value_observed=32
compound="CC1(C)C(=O)Nc2cc(OC(=O)c3ccc(OCc4ccc5ccccc5n4)cc3)ccc21 [Example 68]" value_observed=28
compound="Cn1c(COc2ccc(COc3ccc4c(c3)SCC(=O)N4)cc2)nc2ccccc21 [Example 38]" value_observed=47
compound="Cc1ccc(OCc2ccc(OCc3ccc4ccccc4n3)cc2)c2c1NC(=O)C2(C)C [Example 27]" value_observed=38

Tell us which inhibition at 100 µM value is on record for CC1(C)C(=O)Nc2c(OC(=O)c3ccc(OCc4ccc5ccccc5n4)cc3)cccc21 [Example 69]
33

Tell us which inhibition at 100 µM value is on record for O=C1CCc2ccc(OCc3ccc(OCc4ccc5ccccc5n4)cc3)cc2N1 [Example 23]
41

Tell us which inhibition at 100 µM value is on record for O=C1CCSc2cc(OCc3cccc(OCc4ccc5ccccc5n4)c3)ccc2N1 [Example 11]
47

Tell us which inhibition at 100 µM value is on record for O=C1CSc2cc(OCc3cccc(OCc4ccc5ccccc5n4)c3)ccc2N1 [Example 10]
50

Tell us which inhibition at 100 µM value is on record for CC1(C)C(=O)Nc2c(OC(=O)c3cccc(OCc4ccc5ccccc5n4)c3)cccc21 [Example 61]
28

Tell us which inhibition at 100 µM value is on record for O=C1CSc2c(cccc2NC(=O)c2ccc(OCc3ccc4ccccc4n3)cc2)N1 [Example 71]
28

Tell us which inhibition at 100 µM value is on record for CCCCCCc1cc(OCc2cccc(OCc3ccc4ccccc4n3)c2)cc2c1C(C)(C)C(=O)N2 [Example 16]
48

Tell us which inhibition at 100 µM value is on record for O=C1CS(=O)(=O)c2cc(OCc3cccc(OCc4nc5ccccc5s4)c3)ccc2N1 [Example 78]
29

Tell us which inhibition at 100 µM value is on record for O=C1CCc2cc(OCc3ccc(OCc4ccc5ccccc5n4)cc3)ccc2N1 [Example 22]
45

Tell us which inhibition at 100 µM value is on record for O=C1CS(=O)(=O)c2cc(OCc3cccc(OCc4ccc5ccc(Cl)cc5n4)c3)ccc2N1 [Example 75]
36

Tell us which inhibition at 100 µM value is on record for CC1(C)C(=O)Nc2ccc(OC(=O)c3cccc(OCc4ccc5ccccc5n4)c3)cc21 [Example 59]
37

Tell us which inhibition at 100 µM value is on record for CC1(C)C(=O)Nc2cc(OCc3cccc(OCc4ccc5ccccc5n4)c3)ccc21 [Example 15]
36

Tell us which inhibition at 100 µM value is on record for O=C1CCc2cc(OC(=O)c3cccc(OCc4ccc5ccccc5n4)c3)ccc2N1 [Example 55]
43

Tell us which inhibition at 100 µM value is on record for O=C1CSc2c(cccc2NC(=O)c2cccc(OCc3ccc4ccccc4n3)c2)N1 [Example 70]
37

Tell us which inhibition at 100 µM value is on record for O=C1CCc2cc(OC(=O)c3ccc(OCc4ccc5ccccc5n4)cc3)ccc2N1 [Example 64]
40

Tell us which inhibition at 100 µM value is on record for O=C1CCc2ccc(OCc3cccc(OCc4ccc5ccccc5n4)c3)cc2N1 [Example 7]
46

Tell us which inhibition at 100 µM value is on record for O=C1CSc2cc(OCc3cccc(OCc4ccc5ccc(Cl)cc5n4)c3)ccc2N1 [Example 32]
43

Tell us which inhibition at 100 µM value is on record for CCCCCCc1cc(OCc2ccc(OCc3ccc4ccccc4n3)cc2)cc2c1C(C)(C)C(=O)N2 [Example 29]
34

Tell us which inhibition at 100 µM value is on record for CC1(C)C(=O)Nc2c(OCc3cccc(OCc4ccc5ccccc5n4)c3)cccc21 [Example 17]
40

Tell us which inhibition at 100 µM value is on record for Cc1ccc(OC(=O)c2cccc(OCc3ccc4ccccc4n3)c2)c2cc(C#N)c(=O)[nH]c12 [Example 53]
38

Tell us which inhibition at 100 µM value is on record for CC1(C)C(=O)Nc2ccc(OC(=O)c3ccc(OCc4ccc5ccccc5n4)cc3)cc21 [Example 67]
49

Tell us which inhibition at 100 µM value is on record for CC1(C)C(=O)Nc2cc(OCc3ccc(OCc4ccc5ccccc5n4)cc3)ccc21 [Example 28]
30
